target: SMARCA4-HiBiT (Homo sapiens, UniProt P51532); construct: SMARCA4-HiBiT knock-in Hela monoclonal cell (CS3023226); host or cells: HeLa monoclonal knock-in line (CRISPR HiBiT knock-in at the endogenous locus, heterozygous); test: SMARCA4 HiBiT degradation assay in HeLa cells; format: cell-based; settings: 18 hours incubation, read-out: HeLa-HiBit-SM4 DC50
Sequence (P51532 whole entry): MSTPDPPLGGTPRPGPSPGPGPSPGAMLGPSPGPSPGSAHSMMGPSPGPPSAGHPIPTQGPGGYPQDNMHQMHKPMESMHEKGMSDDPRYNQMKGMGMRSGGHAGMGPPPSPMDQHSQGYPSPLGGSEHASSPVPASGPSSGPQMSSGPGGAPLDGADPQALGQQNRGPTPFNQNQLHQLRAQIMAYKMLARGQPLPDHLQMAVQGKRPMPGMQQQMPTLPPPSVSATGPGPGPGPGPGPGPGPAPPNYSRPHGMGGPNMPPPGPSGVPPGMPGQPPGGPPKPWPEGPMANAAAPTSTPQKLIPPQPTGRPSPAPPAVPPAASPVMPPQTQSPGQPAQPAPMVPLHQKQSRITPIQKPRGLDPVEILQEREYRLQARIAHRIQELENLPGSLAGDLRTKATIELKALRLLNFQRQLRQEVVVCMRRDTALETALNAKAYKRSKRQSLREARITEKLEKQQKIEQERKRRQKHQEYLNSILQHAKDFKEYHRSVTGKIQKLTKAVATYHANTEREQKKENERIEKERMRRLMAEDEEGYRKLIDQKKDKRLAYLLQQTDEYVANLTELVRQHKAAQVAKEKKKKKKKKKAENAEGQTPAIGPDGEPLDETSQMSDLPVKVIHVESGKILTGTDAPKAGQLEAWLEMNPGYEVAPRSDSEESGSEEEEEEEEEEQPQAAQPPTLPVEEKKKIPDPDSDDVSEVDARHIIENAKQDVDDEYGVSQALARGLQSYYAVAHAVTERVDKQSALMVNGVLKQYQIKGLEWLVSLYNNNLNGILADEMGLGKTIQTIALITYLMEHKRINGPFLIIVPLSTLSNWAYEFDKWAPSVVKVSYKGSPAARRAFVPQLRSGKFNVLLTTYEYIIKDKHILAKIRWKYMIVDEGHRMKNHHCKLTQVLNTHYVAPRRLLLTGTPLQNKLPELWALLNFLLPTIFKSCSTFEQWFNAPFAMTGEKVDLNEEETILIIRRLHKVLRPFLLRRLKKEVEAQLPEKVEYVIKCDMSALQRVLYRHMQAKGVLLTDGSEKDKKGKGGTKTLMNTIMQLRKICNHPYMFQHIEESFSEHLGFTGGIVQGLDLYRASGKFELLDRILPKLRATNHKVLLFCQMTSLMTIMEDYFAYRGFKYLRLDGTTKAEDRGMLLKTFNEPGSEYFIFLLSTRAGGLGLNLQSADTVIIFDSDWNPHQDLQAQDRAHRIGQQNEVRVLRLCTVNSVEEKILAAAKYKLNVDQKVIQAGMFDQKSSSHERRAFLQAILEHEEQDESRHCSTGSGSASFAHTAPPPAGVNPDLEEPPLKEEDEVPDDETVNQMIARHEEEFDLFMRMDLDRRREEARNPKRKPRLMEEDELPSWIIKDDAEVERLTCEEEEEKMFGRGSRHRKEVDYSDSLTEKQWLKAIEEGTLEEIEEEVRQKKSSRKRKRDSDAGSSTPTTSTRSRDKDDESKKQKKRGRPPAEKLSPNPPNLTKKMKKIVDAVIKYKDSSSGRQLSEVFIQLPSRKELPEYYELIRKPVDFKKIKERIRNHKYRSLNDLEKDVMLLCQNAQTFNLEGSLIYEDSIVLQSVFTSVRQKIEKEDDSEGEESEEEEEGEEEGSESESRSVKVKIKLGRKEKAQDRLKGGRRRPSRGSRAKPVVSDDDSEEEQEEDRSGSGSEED
readout: DC50

Find the recorded DC50 belonging to O=C1CCC(N2Cc3ccc(N4CCC(CN5C[C@@H]6[C@H](C5)[C@H]6CN5CCN6c7cc(-c8ccccc8O)nnc7NC[C@H]6C5)CC4)cc3C2=O)C(=O)N1 (stereo partly shown) and report it. < 10 nM

Follow-up item: O=C1CCC(N2Cc3cc(OCCN4CCC(N5CCN6c7cc(-c8ccccc8O)nnc7NC[C@H]6C5)CC4)ccc3C2=O)C(=O)N1 (stereo partly shown) < 10 nM

Follow-up item: O=C1CCC(N2Cc3cc(N4CCO[C@@H](CN5C[C@@H]6[C@H](C5)[C@H]6CN5CCN6c7cc(-c8ccccc8O)nnc7NC[C@H]6C5)C4)ccc3C2=O)C(=O)N1 (stereo partly shown) < 10 nM

Follow-up item: CC1CC(N2CCN3c4cc(-c5ccccc5O)nnc4NC[C@H]3C2)CCN1CCCC1CCN(c2cccc3c2C(=O)N(C2CCC(=O)NC2=O)C3=O)CC1 (stereo partly shown) < 10 nM

Follow-up item: O=C1CCC(N2C(=O)c3ccc(N4CCC(CN5CCN(C(=O)N6CCN7c8cc(-c9ccccc9O)nnc8NC[C@H]7C6)CC5)C(F)(F)C4)cc3C2=O)C(=O)N1 (stereo partly shown) 10 to 100 nM

Follow-up item: C[C@@H](CN1CCC(N2CCN3c4cc(-c5ccccc5O)nnc4NC[C@H]3C2)CC1)Nc1cccc2c1C(=O)N(C1CCC(=O)NC1=O)C2=O (stereo partly shown) < 10 nM

Follow-up item: O=C1CCC(N2C(=O)c3ccc(N4CCC(CN5CCC(CCCN6CCN7c8cc(-c9ccccc9O)nnc8NC[C@H]7C6)CC5)CC4)cc3C2=O)C(=O)N1 (stereo partly shown) < 10 nM

Follow-up item: O=C1CCC(N2Cc3ccc(C4CCN(CCN5CCC(N6CCN7c8cc(-c9ccccc9O)nnc8NC[C@H]7C6)CC5)CC4)cc3C2=O)C(=O)N1 (stereo partly shown) 10 to 100 nM

Follow-up item: O=C1CCC(N2C(=O)c3cc(F)c(N4CCN(CC5CCN(C(=O)N6CCN7c8cc(-c9ccccc9O)nnc8NC[C@H]7C6)CC5)CC4)cc3C2=O)C(=O)N1 (stereo partly shown) 10 to 100 nM

Follow-up item: CCC1Nc2nnc(-c3ccccc3O)cc2N2CCN(CC3CCN(CC4CCN(c5ccc6c(c5)C(=O)N(C5CCC(=O)NC5=O)C6=O)CC4)CC3)CC12 (stereo not shown) < 10 nM

Follow-up item: O=C1CCC(N2C(=O)c3ccc(N4CC[C@H](CN5CCC(C(=O)N6CCN7c8cc(-c9cc(F)ccc9O)nnc8NC[C@H]7C6)CC5)[C@@H](F)C4)cc3C2=O)C(=O)N1 (stereo partly shown) [Example 280] < 10 nM

Follow-up item: O=C1CCC(N2C(=O)c3ccc(N4CCC(CN5CCc6cnc(N7CCN8c9cc(-c%10ccccc%10O)nnc9NC[C@H]8C7)nc6C5)CC4)cc3C2=O)C(=O)N1 (stereo partly shown) < 10 nM

Follow-up item: O=C1CCC(N2C(=O)c3ccc(N4CCC(CN5CCC(CN6CCN7c8cc(-c9ccccc9O)nnc8NC[C@H]7C6)CC5)CC4)cc3C2=O)C(=O)N1COP(=O)(O)O (stereo partly shown) < 10 nM

Follow-up item: CN(CCN1CCC(CN2CCN3c4cc(-c5ccccc5O)nnc4NC[C@H]3C2)CC1)c1ccc2c(c1)C(=O)N(C1CCC(=O)NC1=O)C2=O (stereo partly shown) < 10 nM

Follow-up item: O=C1CCC(N2C(=O)c3ccc(N4C[C@@H]5CN(C6CCC(C(=O)N7CCN8c9cc(-c%10ccccc%10O)nnc9NC[C@H]8C7)CC6)C[C@H]5C4)cc3C2=O)C(=O)N1 (stereo partly shown) < 10 nM

Follow-up item: O=C1CCC(N2Cc3cc(OCCCN4CCC(N5CCN6c7cc(-c8ccccc8O)nnc7NC[C@H]6C5)CC4)ccc3C2=O)C(=O)N1 (stereo partly shown) < 10 nM

Follow-up item: O=C1CCC(N2C(=O)c3ccc(N4CCC(N[C@H]5C[C@@H](CN6CCN7c8cc(-c9ccccc9O)nnc8NC[C@H]7C6)C5)CC4)cc3C2=O)C(=O)N1 (stereo partly shown) < 10 nM

Follow-up item: O=C1CCC(N2Cc3cc(OCCN4CCCC(CN5CCN6c7cc(-c8ccccc8O)nnc7NC[C@H]6C5)C4)ccc3C2=O)C(=O)N1 (stereo partly shown) 100 to 1000 nM

Follow-up item: O=C1CCC(N2C(=O)c3ccc(N4CCC(CN5CCC(C(=O)N6CCN7c8cc(-c9ccccc9O)nnc8NC[C@H]7C6)CC5)C(F)(F)C4)cc3C2=O)C(=O)N1 (stereo partly shown) 10 to 100 nM

Follow-up item: CC1CN(CC2CCN(c3ccc4c(c3)C(=O)N(C3CCC(=O)NC3=O)C4)CC2)CCC1C(=O)N1CCN2c3cc(-c4ccccc4O)nnc3NC[C@H]2C1 (stereo partly shown) < 10 nM

Follow-up item: O=C1CCC(N2C(=O)c3ccc(N4CCC(CN5CCCC(CN6CCN7c8cc(-c9ccccc9O)nnc8NC[C@H]7C6)C5)CC4)cc3C2=O)C(=O)N1 (stereo partly shown) < 10 nM

Follow-up item: O=C1CCC(N2C(=O)c3cccc(N4CCN(CCCN5CCC(N6CCN7c8cc(-c9ccccc9O)nnc8NC[C@H]7C6)CC5)CC4)c3C2=O)C(=O)N1 (stereo partly shown) < 10 nM

====

Exercise: for every item that follows, state its recorded Dmax.
biological target: SMARCA4-HiBiT (Homo sapiens); construct: SMARCA4-HiBiT knock-in Hela monoclonal cell (CS3023226); host or cells: HeLa monoclonal knock-in line (CRISPR HiBiT knock-in at the endogenous locus, heterozygous); assay: SMARCA4 HiBiT degradation assay in HeLa cells; type: cell-based; conditions: HeLa, 18 hours incubation, read-out: HeLa-HiBit-SM4 Dmax (%)

Which measured Dmax belongs to O=C1CCC(N2C(=O)c3ccc(N4CCC(CN5CC6CC(C5)C6CN5CCN6c7cc(-c8ccccc8O)nnc7NC[C@H]6C5)CC4)cc3C2=O)C(=O)N1 (stereo partly drawn) [Example 39] , tested on SMARCA4-HiBiT (Homo sapiens)? 50 to 75%

Follow-up item: O=C1CCC(N2C(=O)c3ccc(N4CCC(CN5CCC(F)(CN6CCN7c8cc(-c9ccccc9O)nnc8NC[C@H]7C6)CC5)CC4)cc3C2=O)C(=O)N1 (stereo partly drawn) [Example 175] > 85%

Follow-up item: O=C1CCC(N2C(=O)c3ccc(N4CCC(CNC5CCN(C(=O)N6CCN7c8cc(-c9ccccc9O)nnc8NC[C@H]7C6)CC5)CC4)cc3C2=O)C(=O)N1 (stereo partly drawn) [Example 140] 75 to 85%

Follow-up item: O=C1CCC(N2C(=O)c3ccc(N4CCC(CN5CCc6cnc(N7CCN8c9cc(-c%10ccccc%10O)nnc9NC[C@H]8C7)nc6C5)CC4)cc3C2=O)C(=O)N1 (stereo partly drawn) [Example 60] ≤ 50%

Follow-up item: O=C1CCC(N2Cc3ccc(N4CCC(CN5CCN(C(=O)N6CCN7c8cc(-c9ccccc9O)nnc8NC[C@H]7C6)C(CO)C5)CC4)cc3C2=O)C(=O)N1 (stereo partly drawn) [Example 110] 75 to 85%

Follow-up item: O=C1CCC(N2Cc3ccc(N4CC(CN5CCC(CN6CCN7c8cc(-c9ccccc9O)nnc8NC[C@H]7C6)CC5)C4)cc3C2=O)C(=O)N1 (stereo partly drawn) [Example 276] > 85%

====

molecular target: SMARCA2-HiBiT (Homo sapiens, UniProt P51531); construct: SMARCA2-HiBiT knock-in Hela monoclonal cell (CS302366); host or cells: HeLa monoclonal knock-in line (CRISPR HiBiT knock-in at the endogenous locus, heterozygous); experiment: SMARCA2 HiBiT degradation assay in HeLa cells; format: cell-based; details: HeLa, 18 hours incubation, read-out: HeLa-HiBit-SM2 Dmax (%)
Sequence (P51531 whole entry): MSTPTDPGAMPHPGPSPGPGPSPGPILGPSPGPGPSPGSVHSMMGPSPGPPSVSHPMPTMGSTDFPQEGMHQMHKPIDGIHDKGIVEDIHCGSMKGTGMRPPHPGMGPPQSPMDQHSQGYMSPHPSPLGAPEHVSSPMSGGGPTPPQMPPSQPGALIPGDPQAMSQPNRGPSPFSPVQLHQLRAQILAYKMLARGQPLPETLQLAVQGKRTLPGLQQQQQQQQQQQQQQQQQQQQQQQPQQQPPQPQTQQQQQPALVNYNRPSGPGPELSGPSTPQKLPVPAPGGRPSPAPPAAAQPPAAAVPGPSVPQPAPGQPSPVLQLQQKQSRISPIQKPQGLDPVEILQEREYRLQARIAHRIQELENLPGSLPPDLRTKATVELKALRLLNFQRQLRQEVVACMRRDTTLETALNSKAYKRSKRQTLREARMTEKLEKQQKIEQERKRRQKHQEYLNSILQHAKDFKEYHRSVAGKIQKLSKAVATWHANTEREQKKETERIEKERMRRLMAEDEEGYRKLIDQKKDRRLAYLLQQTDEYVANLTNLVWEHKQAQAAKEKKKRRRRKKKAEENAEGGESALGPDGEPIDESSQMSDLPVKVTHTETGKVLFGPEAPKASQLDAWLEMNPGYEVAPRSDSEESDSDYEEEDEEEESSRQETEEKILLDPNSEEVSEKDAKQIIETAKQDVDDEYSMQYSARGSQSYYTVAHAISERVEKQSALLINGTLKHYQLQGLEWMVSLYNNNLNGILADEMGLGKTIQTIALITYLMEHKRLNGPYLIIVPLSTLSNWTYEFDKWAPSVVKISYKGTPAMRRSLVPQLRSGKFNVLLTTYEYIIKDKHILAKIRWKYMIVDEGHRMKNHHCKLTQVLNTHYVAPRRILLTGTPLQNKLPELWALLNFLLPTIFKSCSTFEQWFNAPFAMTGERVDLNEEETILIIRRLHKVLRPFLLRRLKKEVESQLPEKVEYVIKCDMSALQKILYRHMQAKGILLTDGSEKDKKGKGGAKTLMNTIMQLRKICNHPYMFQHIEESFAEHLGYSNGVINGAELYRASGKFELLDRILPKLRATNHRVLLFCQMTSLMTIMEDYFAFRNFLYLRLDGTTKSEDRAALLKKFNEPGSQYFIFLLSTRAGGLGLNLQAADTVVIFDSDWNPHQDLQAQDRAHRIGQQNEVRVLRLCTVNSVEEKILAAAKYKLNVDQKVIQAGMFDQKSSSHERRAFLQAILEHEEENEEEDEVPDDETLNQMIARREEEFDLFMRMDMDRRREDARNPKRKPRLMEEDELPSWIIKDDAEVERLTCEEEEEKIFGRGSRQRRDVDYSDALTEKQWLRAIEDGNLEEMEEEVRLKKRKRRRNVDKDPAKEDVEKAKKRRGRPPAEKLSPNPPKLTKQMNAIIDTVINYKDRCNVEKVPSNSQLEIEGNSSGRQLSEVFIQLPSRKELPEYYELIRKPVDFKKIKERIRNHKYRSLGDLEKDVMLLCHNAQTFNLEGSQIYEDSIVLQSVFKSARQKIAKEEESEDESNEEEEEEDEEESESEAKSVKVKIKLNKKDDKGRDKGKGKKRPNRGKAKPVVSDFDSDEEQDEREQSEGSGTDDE
readout: Dmax

Find the recorded Dmax belonging to O=C1CCC(N2C(=O)c3ccc(N4CCC(CNC56CCC(C(=O)N7CCN8c9cc(-c%10ccccc%10O)nnc9NC[C@H]8C7)(CC5)CC6)CC4)cc3C2=O)C(=O)N1 (stereo partly drawn) [Example 81] and report it. 75 to 85%

Follow-up item: CC1CC(N2CCN3c4cc(-c5ccccc5O)nnc4NC[C@H]3C2)CCN1CCCC1CCN(c2cccc3c2C(=O)N(C2CCC(=O)NC2=O)C3=O)CC1 (stereo partly drawn) [Example 126] > 85%

Follow-up item: O=C1CCC(N2C(=O)c3ccc(N4CCC(CN5CC6CC(CN7CCN8c9cc(-c%10ccccc%10O)nnc9NC[C@H]8C7)C6C5)C(F)(F)C4)cc3C2=O)C(=O)N1 (stereo partly drawn) [Example 188] > 85%

Follow-up item: CC1(C)CN(CC2CCN(c3ccc4c(c3)C(=O)N(C3CCC(=O)NC3=O)C4)CC2)CCN1C(=O)N1CCN2c3cc(-c4ccccc4O)nnc3NC[C@H]2C1 (stereo partly drawn) [Example 105] > 85%

Follow-up item: CN(CCN1CCC(N2CCN3c4cc(-c5ccccc5O)nnc4NC[C@H]3C2)CC1)c1cccc2c1C(=O)N(C1CCC(=O)NC1=O)C2=O (stereo partly drawn) [Example 68] > 85%

Follow-up item: O=C1CCC(N2C(=O)c3cccc(N4CCC(OCCN5CCC(N6CCN7c8cc(-c9ccccc9O)nnc8NC[C@H]7C6)CC5)CC4)c3C2=O)C(=O)N1 (stereo partly drawn) [Example 67] 50 to 75%
